# Assayed Target: α4β1 integrin on J6.77 cells (UniProt P13612 34-1032; P05556 21-798)
# Test Name: cell-based or functional assay
Quantity Measured: Percent Inhibition of J6.77 adhesion to CS-1 peptide, 5 ug/ml
The number alone won't do; follow it with the unit.

sc 277 (antibody, V domains shown, lambda light chain) VH: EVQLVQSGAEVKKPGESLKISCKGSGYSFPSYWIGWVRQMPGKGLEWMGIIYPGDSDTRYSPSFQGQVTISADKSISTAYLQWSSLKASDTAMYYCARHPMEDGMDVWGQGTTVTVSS VL: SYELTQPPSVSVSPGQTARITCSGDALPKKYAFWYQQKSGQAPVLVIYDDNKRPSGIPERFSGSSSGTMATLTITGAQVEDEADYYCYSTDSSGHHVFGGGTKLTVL : -17%
sc 133 (antibody, V domains shown, lambda light chain; also called mAb sc 133) VH: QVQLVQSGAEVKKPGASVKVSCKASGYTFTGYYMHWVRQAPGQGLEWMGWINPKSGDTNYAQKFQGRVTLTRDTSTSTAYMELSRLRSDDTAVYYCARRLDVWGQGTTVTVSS VL: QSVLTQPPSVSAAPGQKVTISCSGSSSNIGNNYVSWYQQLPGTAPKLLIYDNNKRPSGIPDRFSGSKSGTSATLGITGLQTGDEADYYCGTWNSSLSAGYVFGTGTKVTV : -15%
sc 254 (antibody, V domains shown, kappa light chain) VH: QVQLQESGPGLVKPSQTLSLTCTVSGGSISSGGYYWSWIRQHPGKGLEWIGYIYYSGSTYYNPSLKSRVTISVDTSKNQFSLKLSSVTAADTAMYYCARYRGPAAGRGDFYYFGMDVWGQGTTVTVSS VL: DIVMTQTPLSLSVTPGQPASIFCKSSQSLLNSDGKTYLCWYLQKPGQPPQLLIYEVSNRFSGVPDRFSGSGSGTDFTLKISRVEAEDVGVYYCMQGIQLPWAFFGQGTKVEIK : 0%

Now for another entry.
Quick check: Percent Inhibition of J6.77 adhesion to CS-1 peptide, 5 ug/ml of sc 298 (antibody, V domains shown, lambda light chain) VH: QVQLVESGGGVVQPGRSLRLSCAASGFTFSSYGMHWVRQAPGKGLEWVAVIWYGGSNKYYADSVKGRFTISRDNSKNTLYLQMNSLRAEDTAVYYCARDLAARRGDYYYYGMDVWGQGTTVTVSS VL: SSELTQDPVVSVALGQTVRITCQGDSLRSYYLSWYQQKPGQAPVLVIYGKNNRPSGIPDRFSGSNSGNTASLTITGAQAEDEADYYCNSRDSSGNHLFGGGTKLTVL ?
-7%

Data origin: patent US20160319032A1
